Values compiled from paper PMC10873254.

Reported tissue to tissue ratio at 4 h values are given for each entry in this list.
Assay: in vivo
Design: species or system BALB/c nu/nu female mice
Settings: female, BALB/c nu/nu, mouse, iv, 40 pmol, total radioactivity, Tumor-to-liver ratio
RECORDED_METRIC: tissue to tissue ratio at 4 h

{"columns": ["COMPOUND", "RECORDED_METRIC", "ASSAY_VALUE"],
 "data": [
  ["CCNC(=O)[C@H](CC(C)C)NC(=O)[C@H](Cc1c[nH]cn1)NC(=O)CN(C)C(=O)[C@@H](NC(=O)[C@H](C)NC(=O)[C@H](Cc1c[nH]c2ccccc12)NC(=O)[C@H](CCC(N)=O)NC(=O)[C@@H](Cc1ccccc1)NC(=O)COCC(=O)Nc1ccc(CNC(=O)[C@@H](CCCNC(=N)N)NC(=O)CCC(C(=O)O)N2CCN(CC(=O)O)CCN(CC(=O)O)CCN(CC(=O)O)CC2)cc1)C(C)C (stereo partly drawn) [[^111In]In-AU-SAR-M3, [^111In]In-[DOTAGA-DArg]AU-SAR-M1, metal not drawn]", "tissue to tissue ratio at 4 h", 27],
  ["CCNC(=O)[C@H](CC(C)C)NC(=O)[C@H](Cc1c[nH]cn1)NC(=O)CN(C)C(=O)[C@@H](NC(=O)[C@H](C)NC(=O)[C@H](Cc1c[nH]c2ccccc12)NC(=O)[C@H](CCC(N)=O)NC(=O)[C@@H](Cc1ccccc1)NC(=O)COCC(=O)Nc1ccc(CNC(=O)[C@H](CCCNC(=N)N)NC(=O)CCC(C(=O)O)N2CCN(CC(=O)O)CCN(CC(=O)O)CCN(CC(=O)O)CC2)cc1)C(C)C (stereo partly drawn) [[^111In]In-AU-SAR-M2, [^111In]In-[DOTAGA-Arg]AU-SAR-M1, metal not drawn]", "tissue to tissue ratio at 4 h", 47],
  ["CCNC(=O)[C@H](CC(C)C)NC(=O)[C@H](Cc1c[nH]cn1)NC(=O)CN(C)C(=O)[C@@H](NC(=O)[C@H](C)NC(=O)[C@H](Cc1c[nH]c2ccccc12)NC(=O)[C@H](CCC(N)=O)NC(=O)[C@@H](Cc1ccccc1)NC(=O)COCC(=O)Nc1ccc(CNC(=O)CCC(C(=O)O)N2CCN(CC(=O)O)CCN(CC(=O)O)CCN(CC(=O)O)CC2)cc1)C(C)C (stereo partly drawn) [[^111In]In-AU-SAR-M1, metal not drawn]", "tissue to tissue ratio at 4 h", 65]
]}

* * *

Test: in vivo
Set-up: species or system BALB/c nu/nu female mice
Conditions: female, BALB/c nu/nu, mouse, iv, total radioactivity, GI (gastrointestinal tract) uptake

{"columns": ["COMPOUND", "tissue uptake dose at 4 h (%ID)"],
 "data": [
  ["CCNC(=O)[C@H](CC(C)C)NC(=O)[C@H](Cc1c[nH]cn1)NC(=O)CN(C)C(=O)[C@@H](NC(=O)[C@H](C)NC(=O)[C@H](Cc1c[nH]c2ccccc12)NC(=O)[C@H](CCC(N)=O)NC(=O)[C@@H](Cc1ccccc1)NC(=O)COCC(=O)Nc1ccc(CNC(=O)CCC(C(=O)O)N2CCN(CC(=O)O)CCN(CC(=O)O)CCN(CC(=O)O)CC2)cc1)C(C)C (stereo partly shown) [[^111In]In-AU-SAR-M1, metal not drawn]", 1.5]
]}
